System: HUVEC
Assay: Cell growth inhibition experiment (SRB), HUVEC
Assay type: cell-based
Details: Homo sapiens, incubated for 96 hours, read-out: IC50 (μM) of cancer cell lines HUVEC
# IC50 listing for each entry below

For orientation, consider the following solved cases.
compoundstring=COc1nc2cc(Cl)sc2nc1NC(=O)N1CCN(c2cc(F)cc(F)c2)CC1 reportedproperty=IC50 assayresult="0.54 µM"
compoundstring=CCOc1nc2ccsc2nc1NC(=O)N1CCN(c2cc(C)cc(C)c2)CC1 reportedproperty=IC50 assayresult="< 2.5 µM"

Data request: Query (compound): `COc1cc(OC)cc(N2CCN(C(=O)Nc3nc4sc(Cl)cc4nc3OC(C)C)CC2)c1` ; field requested: IC50
Data returned: < 2.5 µM

Data request: Query (compound): `CCOc1nc2cc(Cl)sc2nc1NC(=O)N1CCN(c2cc(F)cc(F)c2)CC1` ; field requested: IC50
Data returned: < 2.5 µM

Data request: Query (compound): `COc1cc(OC)cc(N2CCN(C(=O)Nc3nc4sccc4nc3OC(C)C)CC2)c1` ; field requested: IC50
Data returned: < 2.5 µM

====

Test system: HUVEC
Test: Cell growth inhibition experiment (SRB), HUVEC
Assay type: cell-based
Settings: Homo sapiens, incubated for 96 hours, read-out: IC50 (μM) of cancer cell lines HUVEC
# IC50 listing for each entry below
Give the quantity in µM, number only.

For orientation, consider the following solved cases.
compoundstring=COc1cc(OC(F)(F)F)cc(N2CCN(C(=O)Nc3nc4sccc4nc3OC)CC2)c1 testsystem=HUVEC reportedproperty=IC50 assayresult=0.13
compoundstring=COc1nc2ccsc2nc1NC(=O)N1CCN(c2cc(F)cc(F)c2)CC1 testsystem=HUVEC reportedproperty=IC50 assayresult=0.07
compoundstring=COc1cc(OC)cc(N2CCN(C(=O)Nc3nc4sccc4nc3OC)CC2)c1 testsystem=HUVEC reportedproperty=IC50 assayresult=0.06
compoundstring=COc1nc2cc(Cl)sc2nc1NC(=O)N1CCN(c2cc(C)cc(C)c2)CC1 testsystem=HUVEC reportedproperty=IC50 assayresult=0.91
compoundstring=COc1cc(OC)cc(N2CCN(C(=O)Nc3nc4sc(Cl)cc4nc3OC)CC2)c1 testsystem=HUVEC reportedproperty=IC50 assayresult=0.12
compoundstring=COc1nc2ccsc2nc1NC(=O)N1CCN(c2cc(C)cc(OC(F)(F)F)c2)CC1 testsystem=HUVEC reportedproperty=IC50 assayresult=0.68

Please look at the following compound next.
Data request: Query (compound): `COc1nc2ccsc2nc1NC(=O)N1CCN(c2cc(C)cc(F)c2)CC1` ; field requested: IC50
Data returned: 0.45

====

# IC50 listing for each entry below
Test system: HEK293
Assay: Cell growth inhibition experiment (SRB), HEK293
Assay type: cell-based
Settings: Homo sapiens, incubated for 96 hours, read-out: IC50 (μM) of cancer cell lines HEK293
Method: The 4-(aryl)-N-(2-alkoxythieno[3,2-b]pyrazin-3-yl)-piperazin-1-carboxamide derivative compounds synthesized according to Examples 1 to 27 of the present invention were treated with various human tissue-derived cancer cell lines cultured according to Experimental Example 1, and thus the inhibitory effect of the growth of human cancer cells was confirmed. […] IC50 values were calculated by nonlinear regression analysis.

compoundstring=COc1nc2ccsc2nc1NC(=O)N1CCN(c2cc(OC(F)(F)F)cc(C(F)(F)F)c2)CC1 assayresult="0.12 µM"
compoundstring=CCOc1nc2cc(Cl)sc2nc1NC(=O)N1CCN(c2cc(C)cc(C)c2)CC1 assayresult="< 2.5 µM"
compoundstring=CCOc1nc2ccsc2nc1NC(=O)N1CCN(c2cc(C)cc(C)c2)CC1 assayresult="< 2.5 µM"

Please look at the following compound next.
Data request: Query (compound): `CCOc1nc2cc(Cl)sc2nc1NC(=O)N1CCN(c2cc(OC)cc(OC)c2)CC1` ; field requested: IC50
Data returned: < 2.5 µM

====

Test system: HN31 (head and neck cancer) cell line
Test: Cell growth inhibition experiment (SRB), HN31
Assay type: cell-based
Settings: Homo sapiens, incubated for 96 hours, read-out: IC50 (μM) of cancer cell lines HN31
reportedProperty: IC50 (µM)
Give the quantity in µM, number only.

compoundstring=COc1nc2ccsc2nc1NC(=O)N1CCN(c2cc(C)cc(C)c2)CC1 testsystem="HN31 (head and neck cancer) cell line" reportedproperty=IC50 assayresult=0.41
compoundstring=CCOc1nc2cc(Cl)sc2nc1NC(=O)N1CCN(c2cc(OC)cc(OC)c2)CC1 testsystem="HN31 (head and neck cancer) cell line" reportedproperty=IC50 assayresult=1.54
compoundstring=COc1nc2cc(Cl)sc2nc1NC(=O)N1CCN(c2cc(F)cc(F)c2)CC1 testsystem="HN31 (head and neck cancer) cell line" reportedproperty=IC50 assayresult=0.71
compoundstring=COc1nc2ccsc2nc1NC(=O)N1CCN(c2cc(OC(F)(F)F)cc(C(F)(F)F)c2)CC1 testsystem="HN31 (head and neck cancer) cell line" reportedproperty=IC50 assayresult=0.36
compoundstring=CCOc1nc2ccsc2nc1NC(=O)N1CCN(c2cc(C)cc(C)c2)CC1 testsystem="HN31 (head and neck cancer) cell line" reportedproperty=IC50 assayresult=0.65
compoundstring=COc1nc2ccsc2nc1NC(=O)N1CCN(c2cc(C)cc(OC(F)(F)F)c2)CC1 testsystem="HN31 (head and neck cancer) cell line" reportedproperty=IC50 assayresult=1.12

Please look at the following compound next.
Data request: Query (compound): `COc1cc(OC)cc(N2CCN(C(=O)Nc3nc4sc(Cl)cc4nc3OC)CC2)c1` ; field requested: IC50
Data returned: 0.27

====

Tested on: HUVEC
Test: Cell growth inhibition experiment (SRB), HUVEC
Format: cell-based
Conditions: Homo sapiens, incubated for 96 hours, read-out: IC50 (μM) of cancer cell lines HUVEC
reportedProperty: IC50 (µM)
Give the quantity in µM, number only.

compoundstring=COc1nc2ccsc2nc1NC(=O)N1CCN(c2cc(C)cc(C)c2)CC1 reportedproperty=IC50 assayresult=0.07

Data request: Query (compound): `CCOc1nc2cc(Cl)sc2nc1NC(=O)N1CCN(c2cc(OC)cc(OC)c2)CC1` ; field requested: IC50
Data returned: 2.25

Data request: Query (compound): `COc1cc(F)cc(N2CCN(C(=O)Nc3nc4sccc4nc3OC)CC2)c1` ; field requested: IC50
Data returned: 1.36

Data request: Query (compound): `COc1nc2ccsc2nc1NC(=O)N1CCN(c2cc(OC(F)(F)F)cc(C(F)(F)F)c2)CC1` ; field requested: IC50
Data returned: 0.21

====

System: HEK293
Assay: Cell growth inhibition experiment (SRB), HEK293
Assay type: cell-based
Details: Homo sapiens, incubated for 96 hours, read-out: IC50 (μM) of cancer cell lines HEK293
Could you please classify the records by IC50 using these ranges: lo: < 0.6 µM; mid: ≥ 0.6 µM and < 0.9 µM; hi: ≥ 0.9 µM

compoundstring=COc1nc2ccsc2nc1NC(=O)N1CCN(c2cc(C)cc(OC(F)(F)F)c2)CC1 labelvalue=hi
compoundstring=COc1cc(F)cc(N2CCN(C(=O)Nc3nc4sccc4nc3OC)CC2)c1 labelvalue=hi
compoundstring=COc1cc(OC)cc(N2CCN(C(=O)Nc3nc4sc(Cl)cc4nc3OC)CC2)c1 labelvalue=mid
compoundstring=COc1nc2ccsc2nc1NC(=O)N1CCN(c2cc(C)cc(F)c2)CC1 labelvalue=lo
compoundstring=COc1nc2cc(Cl)sc2nc1NC(=O)N1CCN(c2cc(F)cc(F)c2)CC1 labelvalue=mid

Data request: Class (by measured IC50) for `COc1nc2ccsc2nc1NC(=O)N1CCN(c2cccc(OC(F)(F)F)c2)CC1`
Data returned: lo

Data request: Class (by measured IC50) for `COc1nc2ccsc2nc1NC(=O)N1CCN(c2cc(F)cc(F)c2)CC1`
Data returned: lo

Data request: Class (by measured IC50) for `COc1cc(C)cc(N2CCN(C(=O)Nc3nc4sccc4nc3OC)CC2)c1`
Data returned: hi

Data request: Class (by measured IC50) for `COc1cc(OC(F)(F)F)cc(N2CCN(C(=O)Nc3nc4sccc4nc3OC)CC2)c1`
Data returned: lo

Data request: Class (by measured IC50) for `COc1cc(OC)cc(N2CCN(C(=O)Nc3nc4sccc4nc3OC)CC2)c1`
Data returned: lo

====

System: HN31 (head and neck cancer) cell line
Test: Cell growth inhibition experiment (SRB), HN31
Format: cell-based
Details: Homo sapiens, incubated for 96 hours, read-out: IC50 (μM) of cancer cell lines HN31
Threshold 0.5 µM: IC50 strictly smaller gives satisfied, otherwise not satisfied.

compound="COc1cc(OC)cc(N2CCN(C(=O)Nc3nc4sccc4nc3OC)CC2)c1 [Example 10]" labelvalue=satisfied
compound="COc1cc(OC(F)(F)F)cc(N2CCN(C(=O)Nc3nc4sccc4nc3OC)CC2)c1 [Example 25]" labelvalue=satisfied
compound="CCOc1nc2cc(Cl)sc2nc1NC(=O)N1CCN(c2cc(F)cc(F)c2)CC1 [Example 6]" labelvalue="not satisfied"
compound="COc1nc2ccsc2nc1NC(=O)N1CCN(c2cc(C)cc(F)c2)CC1 [Example 23]" labelvalue=satisfied
compound="CCOc1nc2ccsc2nc1NC(=O)N1CCN(c2cc(F)cc(F)c2)CC1 [Example 15]" labelvalue="not satisfied"

Alright, here's another compound for you.
Data request: Quick check: does CCOc1nc2ccsc2nc1NC(=O)N1CCN(c2cc(OC)cc(OC)c2)CC1 [Example 13] have IC50 under 0.5 µM?
Data returned: not satisfied
